The measurements presented in this section are drawn from patent US7351690B2.

experimental_target: hMC4-R (Homo sapiens, UniProt P32245)
Construct: expressed in transfected cells
Sequence (P32245 whole entry): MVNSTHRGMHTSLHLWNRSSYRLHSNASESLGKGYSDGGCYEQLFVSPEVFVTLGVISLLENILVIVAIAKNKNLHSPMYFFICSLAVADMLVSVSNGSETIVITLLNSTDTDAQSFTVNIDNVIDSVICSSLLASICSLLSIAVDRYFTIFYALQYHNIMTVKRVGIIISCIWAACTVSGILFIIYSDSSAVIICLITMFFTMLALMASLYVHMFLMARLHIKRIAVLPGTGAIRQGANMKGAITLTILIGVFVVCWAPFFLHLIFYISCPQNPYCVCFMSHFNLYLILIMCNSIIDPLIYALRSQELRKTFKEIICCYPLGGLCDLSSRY
assay_notes: competitive inhibition binding assay, 125I-NDP-alpha-MSH, hMC4-R membranes
condition_details: 1 μM test peptide; 0.4 nM 125I-NDP-alpha-MSH; hMC4-R membranes
Square brackets hold non-standard residues; d marks the D form. Ends that are not written are not given here. Nle = CCCC[C@H](N)C(=O)O
value_type: % Inhibition at 1 μM at Melanocortin Receptor 4 (%)
Lab book: enter the figure in %, no units written.

substance	result_units	value_observed
Ac-Ser-Tyr-Ser-Nle-Glu-His-D-Cys-Phe-Arg-Trp-Gly-Lys-Pro-Val-NH2 (CFRWGKPV; Ac-Ser-Tyr-Ser-Nle-Glu-His N-term; D-residue; amide; printed: Cys-Phe-Arg-Trp-Gly-Lys-Pro-Val-) [2-8]	%	25
Ac-Ser-Tyr-Ser-Nle-Glu-His-Phe-Arg-Trp-Gly-Lys-Gly-Val-D-Cys-NH2 (EHFRWGKGV; not fully specified; Ac-Ser-Tyr-Ser-Nle N-term; D-Cys; amide; printed: Glu-His-Phe-Arg-Trp-Gly-Lys-Gly-Val-) [2-1]	%	46
Tyr-Val-Nle-Gly-His-Phe-Arg-Cys-Trp-Asp-Arg-Phe-NH2 (YV[Nle]GHFRCWDRF-NH2; numbers in words are those of the source; also: oxorhenium(V) N3S1 chelate (Re=O) with Cys) [4-5]	%	74
Ac-Ser-Tyr-Ser-Nle-Glu-His-Phe-Arg-Trp-D-Cys-Gly-Lys-Pro-Val-NH2 (chain 1 Ac-SYS[Nle]EHFRW; chain 2 [dC]GKPV-NH2; not fully specified (bridges); numbers in words are those of the source; also: oxorhenium(V) N3S1 chelate (Re(V)=O)) [2-5]	%	4
Tyr-Val-Nle-Gly-His-Phe-Cys-Arg-Trp-Asp-Arg-Phe-NH2 (YV[Nle]GHFCRWDRF-NH2; numbers in words are those of the source; also: oxorhenium(V) N3S1 chelate (Re=O) with Cys) [4-6]	%	−2

Task item: Output % Inhibition at 1 μM at Melanocortin Receptor 4 of Tyr-Val-Nle-Gly-His-Phe-Arg-Trp-Cys-Asp-Arg-Phe-NH2 (YV[Nle]GHFRWCDRF-NH2; numbers in words are those of the source; also: oxorhenium(V) N3S1 chelate (Re=O) with Cys) [4-4]
Reply: 39

Task item: Tell me measured % Inhibition at 1 μM at Melanocortin Receptor 4 for Ac-Ser-Tyr-Ser-Nle-Glu-His-Phe-Arg-Trp-Gly-Lys-Gly-D-Cys-Val-NH2 (Ac-SYS[Nle]EHFRWGKG[dC]V-NH2; not fully specified (bridges); printed as Ac-Ser-Tyr-Ser-Nle-Glu-His-Phe-Arg-Trp-Gly-Lys-Gly-D-Cys-Val-NH2; numbers in words are those of the source; also: oxorhenium(V) N3S1 chelate (Re(V)=O)) [2-2] please.
Reply: 28

Task item: // fetch % Inhibition at 1 μM at Melanocortin Receptor 4 given entry Ac-Ser-Tyr-Ser-D-Cys-Nle-Glu-His-Phe-Arg-Trp-Gly-Lys-Pro-Val-NH2 (Ac-SYS[dC][Nle]EHFRWGKPV-NH2; not fully specified (bridges); printed as Ac-Ser-Tyr-Ser-D-Cys-Nle-Glu-His-Phe-Arg-Trp-Gly-Lys-Pro-Val-NH2; numbers in words are those of the source; also: oxorhenium(V) N3S1 chelate (Re(V)=O)) [2-11]
Reply: 37

Task item: Identify % Inhibition at 1 μM at Melanocortin Receptor 4 associated with the substance Tyr-Val-Nle-Gly-His-D-Phe-Arg-Trp-Asp-Cys-Arg-Phe-NH2 (YV[Nle]GH[dF]RWDCRF-NH2; also: Re complex) [3-3]
Reply: 99

Task item: Provide % Inhibition at 1 μM at Melanocortin Receptor 4 value for the following substance: Tyr-Val-Nle-Gly-Cys-His-D-Phe-Arg-Trp-Asp-Arg-Phe-NH2 (YV[Nle]GCH[dF]RWDRF-NH2; not fully specified (bridges); printed as Tyr-Val-Nle-Gly-Cys-His-D-Phe-Arg-Trp-Asp-Arg-Phe-NH2; numbers in words are those of the source; also: oxorhenium(V) N3S1 chelate complex (Re=O)) [3-9]
Reply: 55

Task item: Annotate the substance Tyr-Val-Nle-Gly-Cys-D-Phe-Arg-Trp-Asp-Arg-Phe-NH2 (YV[Nle]GC[dF]RWDRF-NH2; not fully specified (bridges); printed as Tyr-Val-Nle-Gly-Cys-D-Phe-Arg-Trp-Asp-Arg-Phe-NH2; numbers in words are those of the source; also: oxorhenium(V) N3S1 chelate complex (Re=O)) [5-7] with its measured % Inhibition at 1 μM at Melanocortin Receptor 4.
Reply: 69

Task item: Tell us which % Inhibition at 1 μM at Melanocortin Receptor 4 value is on record for Tyr-Val-Nle-Gly-His-D-Phe-Arg-Cys-Trp-Asp-Arg-Phe-NH2 (YV[Nle]GH[dF]RCWDRF-NH2; also: Re complex) [3-5]
Reply: 33

Task item: Provide only the value of recorded % Inhibition at 1 μM at Melanocortin Receptor 4 for Tyr-Val-Nle-Cys-Gly-His-D-Phe-Arg-Trp-Asp-Arg-Phe-NH2 (YV[Nle]CGH[dF]RWDRF-NH2; not fully specified (bridges); printed as Tyr-Val-Nle-Cys-Gly-His-D-Phe-Arg-Trp-Asp-Arg-Phe-NH2; numbers in words are those of the source; also: oxorhenium(V) N3S1 chelate complex (Re=O)) [3-10]
Reply: 80
